- Test system: Rattus norvegicus
- TEST: Blood pressure lowering activity in spontaneously hypertensive rats (SHR) after 6 hours of administration (iv) of dose of 1.0 mg/kg; Did not last more than 1/2 hr […]
- Assay type: functional, organism-based
- Set-up: dose 1 mg/kg
Active and inactive are the calls of the source. The rule behind the calls is not given here.
ENDPOINT: MBP

Check out these entries, answers already filled in.
COc1ccc(N2CCN(CC3CN=C4c5ccccc5N=C(SC)N43)CC2)cc1 (stereo not given) | inactive
COc1cccc(N2CCN(CC3CN=C4c5ccccc5N=C(SC)N43)CC2)c1 (stereo not given) | inactive
COC1=Nc2ccccc2C2=NCC(CN3CCN(c4ccccc4)CC3)N12 (stereo not given) | inactive
CSC1=Nc2ccccc2C2=NCC(CN3CCN(c4ccccc4Cl)CC3)N12 (stereo not given) | inactive

Recall the recorded MBP for CSC1=Nc2ccccc2C2=NCC(CN3CCN(c4ccccc4)CC3)N12 (stereo not given) with Rattus norvegicus and state it.
inactive

---

Kindly supply the reported log10 of Ki values for the records listed here.
- SYSTEM_NAME: Adrenergic receptor alpha-1 (Rattus norvegicus, UniProt P15823+P23944+P43140)
- Sequence (P15823 whole entry): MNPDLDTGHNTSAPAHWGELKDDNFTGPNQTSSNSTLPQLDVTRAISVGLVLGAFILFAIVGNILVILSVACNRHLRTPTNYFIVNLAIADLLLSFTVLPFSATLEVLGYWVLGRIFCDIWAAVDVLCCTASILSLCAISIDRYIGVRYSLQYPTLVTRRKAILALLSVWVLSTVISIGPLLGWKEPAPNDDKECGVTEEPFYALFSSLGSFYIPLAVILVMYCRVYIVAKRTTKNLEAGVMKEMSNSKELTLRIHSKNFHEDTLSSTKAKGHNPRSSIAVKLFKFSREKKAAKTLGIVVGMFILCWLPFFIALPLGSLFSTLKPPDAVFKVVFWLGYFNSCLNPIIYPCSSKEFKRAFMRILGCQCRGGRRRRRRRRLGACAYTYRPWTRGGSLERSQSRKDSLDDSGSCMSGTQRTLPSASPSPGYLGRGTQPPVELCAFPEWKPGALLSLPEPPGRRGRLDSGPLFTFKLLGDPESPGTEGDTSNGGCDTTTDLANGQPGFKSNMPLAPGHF
- Sequence (P23944 whole entry): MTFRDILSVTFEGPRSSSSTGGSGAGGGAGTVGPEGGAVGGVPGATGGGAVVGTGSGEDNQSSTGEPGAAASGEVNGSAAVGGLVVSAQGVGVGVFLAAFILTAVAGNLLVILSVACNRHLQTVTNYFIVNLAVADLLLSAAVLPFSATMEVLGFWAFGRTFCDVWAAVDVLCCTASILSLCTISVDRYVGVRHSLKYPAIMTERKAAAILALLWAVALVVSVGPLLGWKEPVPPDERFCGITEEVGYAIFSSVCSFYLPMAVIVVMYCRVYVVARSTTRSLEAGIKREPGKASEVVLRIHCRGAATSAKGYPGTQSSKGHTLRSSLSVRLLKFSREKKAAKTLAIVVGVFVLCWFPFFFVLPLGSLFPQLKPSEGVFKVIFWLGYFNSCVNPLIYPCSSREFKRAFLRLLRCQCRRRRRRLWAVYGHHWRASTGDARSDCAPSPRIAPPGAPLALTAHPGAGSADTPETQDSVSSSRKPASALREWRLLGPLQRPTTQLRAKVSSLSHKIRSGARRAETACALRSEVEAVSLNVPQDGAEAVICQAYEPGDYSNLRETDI
- Sequence (P43140 whole entry): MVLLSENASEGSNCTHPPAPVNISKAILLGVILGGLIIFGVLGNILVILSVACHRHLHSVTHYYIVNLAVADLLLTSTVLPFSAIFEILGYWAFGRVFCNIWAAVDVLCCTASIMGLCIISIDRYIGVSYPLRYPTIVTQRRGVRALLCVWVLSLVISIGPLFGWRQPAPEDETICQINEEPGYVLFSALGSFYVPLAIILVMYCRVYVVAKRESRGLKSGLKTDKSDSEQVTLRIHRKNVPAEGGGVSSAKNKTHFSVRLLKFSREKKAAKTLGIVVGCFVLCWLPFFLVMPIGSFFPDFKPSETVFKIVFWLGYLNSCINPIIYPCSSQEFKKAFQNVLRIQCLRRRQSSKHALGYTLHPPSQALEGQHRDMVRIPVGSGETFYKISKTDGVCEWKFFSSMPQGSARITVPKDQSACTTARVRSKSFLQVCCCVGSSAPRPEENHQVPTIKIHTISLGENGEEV
- TEST: Binding affinity against alpha-1 adrenergic receptor by measuring displacement of [3H]prazosin from rat brain cortex membranes (in vitro).
- Assay type: cell membranes, Membrane
log10 Ki, nM

Reference set, count: 8
COc1cccc(N2CCN(CC3CN=C4c5ccccc5N(C)C(=O)N43)CC2)c1 (stereo not drawn) | 1.29
COc1cccc(N2CCN(CC3CN=C4c5ccccc5NC(=O)N43)CC2)c1 (stereo not drawn) | 0.76
CN1C(=O)N2C(=NCC2CN2CCN(c3ccccc3Cl)CC2)c2ccccc21 (stereo not drawn) | -1.17
COC1=Nc2ccccc2C2=NCC(CN3CCN(c4ccccc4)CC3)N12 (stereo not drawn) | 0.13
O=C1Nc2ccccc2C2=NC(CN3CCN(c4ccccc4Cl)CC3)CN12 (stereo not drawn) | 0.04
COC1=Nc2ccccc2C2=NCC(CN3CCN(c4ccccc4Cl)CC3)N12 (stereo not drawn) | -0.96
COc1ccccc1N1CCN(CC2CN3C(=O)N(C)c4ccccc4C3=N2)CC1 (stereo not drawn) | -0.43
CN1C(=O)N2C(=NCC2CN2CCN(c3ccccc3)CC2)c2ccccc21 (stereo not drawn) | 1.18

Quick request: log10 of Ki for each listed item, please.
1. CN1C(=O)N2CC(CN3CCN(c4ccccc4)CC3)N=C2c2ccccc21 (stereo not drawn)
2. O=C1Nc2ccccc2C2=NC(CN3CCN(c4ccccc4)CC3)CN12 (stereo not drawn)

[1.02, 0.30]

---

So I've got a bunch of compounds here, and I need their MBP values.
- System: Rattus norvegicus
- TEST: Blood pressure lowering activity in spontaneously hypertensive rats (SHR) after 1 hour of administration (iv) of dose of 0.5 mg/kg […]
- Format: functional
Numbers only, in mmHg.

Examples from the recorded data:
CN1C(=O)N2CC(CN3CCN(c4ccccc4Cl)CC3)N=C2c2ccccc21 (stereo not drawn) | -27.5
COc1ccccc1N1CCN(CC2CN=C3c4ccccc4N(C)C(=O)N32)CC1 (stereo not drawn) | -32.5

Could you tell me MBP for each of these compounds? They are listed below.
1. O=C1Nc2ccccc2C2=NCC(CN3CCN(c4ccccc4Cl)CC3)N12 (stereo not drawn)
2. COC1=Nc2ccccc2C2=NCC(CN3CCN(c4ccccc4Cl)CC3)N12 (stereo not drawn)
3. COc1ccccc1N1CCN(CCn2c(=O)[nH]c3ccccc3c2=O)CC1
4. COC1=Nc2ccccc2C2=NCC(CN3CCN(c4ccccc4OC)CC3)N12 (stereo not drawn)
5. COc1ccccc1N1CCN(CC2CN3C(=O)N(C)c4ccccc4C3=N2)CC1 (stereo not drawn)
6. CN1C(=O)N2C(=NCC2CN2CCN(c3ccccc3Cl)CC2)c2ccccc21 (stereo not drawn)

[-14.6, -28.3, -33.9, -17.2, -38.4, -8.3]

---

- System: Rattus norvegicus
- TEST: Blood pressure lowering activity in spontaneously hypertensive rats (SHR) after 6 hours of administration (iv) of dose of 4.0 mg/kg […]
- Assay type: functional
Please go through the items and note down their MBP.

Hey, quick one: what's MBP for each of these?
1. SC1=Nc2ccccc2C2=NC(CN3CCN(c4ccccc4)CC3)CN12 (centres undefined)
2. O=C(c1ccc(F)cc1)C1CCN(CC2CN3C(=O)Nc4ccccc4C3=N2)CC1 (centres undefined)
3. COc1cc2c(cc1OC)C1=NC(CN3CCN(c4ccccc4)CC3)CN1C(=O)N2 (centres undefined)
4. COc1cccc(N2CCN(CC3CN4C(=O)Nc5ccccc5C4=N3)CC2)c1 (centres undefined)

-22.5 mmHg
-13.8 mmHg
-12.6 mmHg
-8.5 mmHg

---

- SYSTEM_NAME: Adrenergic receptor alpha-2 (Rattus norvegicus, UniProt P22086+P19328+P22909)
- TEST: Binding affinity against alpha-2 adrenergic receptor by measuring displacement of [3H]clonidine from rat brain cortex membranes (in vitro).
- Type: cell membranes, Membrane
What Ki was measured for each of the following?
Numbers only, in nM.

COc1ccccc1N1CCN(CC2CN3C(=O)N(C)c4ccccc4C3=N2)CC1 (configuration not stated) | 1740
CN1C(=O)N2C(=NCC2CN2CCN(c3ccccc3Cl)CC2)c2ccccc21 (configuration not stated) | 810
COc1ccccc1N1CCN(CC2CN=C3c4ccccc4N(C)C(=O)N32)CC1 (configuration not stated) | 1419

Provide reported Ki for each item, in the same order as listed.
1. O=C1Nc2ccccc2C2=NC(CN3CCC(Cc4ccccc4)CC3)CN12 (configuration not stated)
2. COc1cccc(N2CCN(CC3CN=C4c5ccccc5N=C(SC)N43)CC2)c1 (configuration not stated)
3. COc1cccc(N2CCN(CC3CN=C4c5ccccc5NC(=O)N43)CC2)c1 (configuration not stated)
4. CN1C(=O)N2CC(CN3CCN(c4ccccc4)CC3)N=C2c2ccccc21 (configuration not stated)

5011
8356
302
3334
